// provenance: paper PMC10438916

biological target: human sEH (Homo sapiens); assay: Determination of inhibitory potency; settings: read-out: Human sEH IC50; recombinant affinity purified human sEH, means of three separate experiments
Sequence (P34913 whole entry): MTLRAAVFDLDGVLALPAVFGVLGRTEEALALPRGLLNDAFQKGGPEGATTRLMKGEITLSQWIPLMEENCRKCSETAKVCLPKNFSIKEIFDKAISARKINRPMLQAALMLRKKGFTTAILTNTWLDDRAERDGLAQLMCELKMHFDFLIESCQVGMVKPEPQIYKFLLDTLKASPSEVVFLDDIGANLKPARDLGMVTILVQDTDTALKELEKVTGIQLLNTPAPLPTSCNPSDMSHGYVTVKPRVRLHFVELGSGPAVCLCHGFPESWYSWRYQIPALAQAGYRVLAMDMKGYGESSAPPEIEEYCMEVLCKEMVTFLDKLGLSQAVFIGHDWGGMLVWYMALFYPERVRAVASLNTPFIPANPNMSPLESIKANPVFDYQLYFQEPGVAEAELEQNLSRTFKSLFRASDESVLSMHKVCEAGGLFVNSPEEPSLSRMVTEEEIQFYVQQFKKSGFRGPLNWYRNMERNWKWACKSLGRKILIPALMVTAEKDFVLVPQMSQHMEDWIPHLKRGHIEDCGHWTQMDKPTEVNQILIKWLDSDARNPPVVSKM
pIC50: −log10 of the molar value.
Measure Name: pIC50

Some solved entries appear below for comparison.
{"Compound": "CC1(C)C2CCC1(C)C(NC(=O)Nc1ccccc1Cl)C2 (racemic) [L/D-3c]", "Tested On": "human sEH (Homo sapiens)", "pIC50": 7.07}
{"Compound": "CC1(C)C2CCC1(C)C(NC(=S)Nc1cccc(F)c1)C2 (racemic) [L/D-3e]", "Tested On": "human sEH (Homo sapiens)", "pIC50": 6.90}
{"Compound": "CC1(C)C2CCC1(C)C(NC(=O)Nc1ccccc1Cl)C2 [Compound L-3c]", "Tested On": "human sEH (Homo sapiens)", "pIC50": 6.41}

1. CC12CCC(C1)C(C)(C)C2NC(=O)Nc1cccc(F)c1 [Compound L-6a]
2. CC12CCC(C1)C(C)(C)C2NC(=O)Nc1ccc(F)cc1 [Compound L-6b]
3. CC1(C)C2CCC1(C)C(NC(=O)Nc1ccc(F)cc1)C2 [Compound D-3b]
4. CC12CCC(C1)C(C)(C)C2NC(=O)Nc1ccccc1Cl [Compound D-6c]
[in] Output the entries ranked by pIC50 from maximum down to minimum. I'd appreciate it if you listed the labels in the requested order.
[out] 3, 1, 2, 4
(3: 8.09, 1: 6.66, 2: 6.38, 4: 5.32)

a. CC1(C)C2CCC1(C)C(NC(=O)Nc1cccc(Cl)c1)C2 [Compound D-3d]
b. CC1(C)C2CCC1(C)C(NC(=O)Nc1cccc(F)c1)C2 [Compound D-3a]
[in] Which value of pIC50 is numerically greater: that of a or that of b ? Give the label under which the chosen entry appears.
[out] a

a. CC1(C)C2CCC1(C)C(NC(=O)Nc1cccc(Cl)c1)C2 (racemic) [L/D-3d]
b. CC12CCC(C1)C(C)(C)C2NC(=O)Nc1cccc(Cl)c1 [Compound D-6d]
c. CC12CCC(C1)C(C)(C)C2NC(=O)Nc1ccccc1Cl [Compound L-6c]
d. CC1(C)C2CCC1(C)C(NC(=O)Nc1ccc(F)cc1)C2 [Compound L-3b]
[in] Hey, can you sort those compounds up there by pIC50, smallest first? I'd appreciate it if you listed the labels in the requested order.
[out] c, b, d, a
